# Target or system: EGFR* (recombinant extracellular domain of human EGFR) (human, UniProt P00533 25-645)
# Procedure text: BLI; kon 2.0e5 M-1 s-1; koff 29e-4 s-1; possibly from the authors' earlier work [36], not marked as cited in table; BLI buffer and temperature not in the material; aptamers folded at 1 uM in PBS with 5 mM MgCl2 (95 C 5 min, slow cooling); ACCO assembled in PBS + 5 mM MgCl2 or Tris-HCl pH 7.4, 50 mM NaCl, 10 mM KCl, 5 mM MgCl2
# Condition parameters: protein: recombinant; imperfect hairpins (predicted)
Parameter: pKd
Reminder that pKd means the negative base-10 logarithm of the concentration expressed in mol/L.

Please report the recorded pKd for U31 (ssDNA) DNA: ATCCAGAGTGACGCAGCATTTGTTTAATATGTTTTTTAATTCCCCTTGTGGTGTGTTGTGGACACGGTGGCTTAGT . 7.82
